Each recorded value in this set is attributed to paper PMC8147360.

- test target: phenylalanine hydroxylase (PAH) (Rattus norvegicus)
- Construct: rat PAH maltose fusion protein, expressed in E. coli
- Sequence (P04176 2-453): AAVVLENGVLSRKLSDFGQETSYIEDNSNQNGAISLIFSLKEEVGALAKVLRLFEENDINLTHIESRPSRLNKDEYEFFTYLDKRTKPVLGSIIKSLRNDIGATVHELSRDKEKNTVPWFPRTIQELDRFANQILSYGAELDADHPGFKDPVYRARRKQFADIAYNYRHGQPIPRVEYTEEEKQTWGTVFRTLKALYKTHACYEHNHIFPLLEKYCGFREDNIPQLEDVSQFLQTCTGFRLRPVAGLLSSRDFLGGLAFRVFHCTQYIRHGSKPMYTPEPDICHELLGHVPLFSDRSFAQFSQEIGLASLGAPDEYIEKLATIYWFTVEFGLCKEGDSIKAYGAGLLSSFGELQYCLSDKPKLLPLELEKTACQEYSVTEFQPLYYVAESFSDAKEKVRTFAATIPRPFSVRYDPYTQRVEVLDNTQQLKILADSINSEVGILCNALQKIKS
- assay text: HPLC tyrosine fluorescence assay with purified recombinant PAH
pIC50: −log10 of the molar value.

# compound, pIC50
records = [
    ("CC1Nc2nc(N(C)C)[nH]c(=O)c2NC1C (stereo not shown)", "3.37 to 3.44"),
]
